Where do these numbers come from? They come from patent US5053070A.

Reported Injury Rice values are given for each entry in this list.
Test system: rice
Test: Treatment of soil under submerged condition, pre-emergence (Test 4), injury
Assay type: in vivo
Conditions: 30 g ai/a granule, 30 days later

COc1cc(OC)nc(Oc2ccccc2C=NOCC=Cc2ccccc2Br)n1 | 0 (91-100 (No damages))
COc1cc(OC)nc(Oc2ccccc2C=NOCC#Cc2ccccc2)n1 | 0 (91-100 (No damages))
COc1cc(OC)nc(Oc2ccccc2C=NOCC=Cc2ccccc2Cl)n1 | 0 (91-100 (No damages))
COc1cc(OC)nc(Oc2ccccc2C=NOCC=Cc2ccccc2C)n1 | 1 (71-90 (Slight damages))
COC(=O)c1ccccc1Oc1nc(OC)cc(OC)n1 [A, reference compound] | 5 (0-5 (Death))
COc1cccc(C=CCON=Cc2ccccc2Oc2nc(OC)cc(OC)n2)c1 | 0 (91-100 (No damages))
COc1cc(OC)nc(Oc2ccccc2C=NOC(C)C)n1 | 0 (91-100 (No damages))
COc1cc(OC)nc(Oc2ccccc2C=O)n1 [B, reference compound] | 5 (0-5 (Death))

The record that follows has no Injury Rice shown yet.
Task item: Observed Injury Rice on rice for CON=Cc1ccccc1Oc1nc(OC)cc(OC)n1 , please.
Reply: 0 (91-100 (No damages))

----------
Test system: foxtail meadow
Assay: Upland foliar application test (Test 3)
Format: in vivo
Details: 30 g ai/a, foliar spray at 2-3 leaves, 30th day
Reported Herbicidal effects Foxtail meadow values are given for each entry in this list.

Here's what some known entries look like.
COc1cc(OC)nc(Oc2ccccc2C=NOCc2ccc(C)cc2)n1 | 4 (6-10 (Severe damages))
COc1cc(OC)nc(Oc2ccccc2C=NOCC=Cc2ccc(Cl)cc2Cl)n1 | 5 (0-5 (Death))
COc1cc(OC)nc(Oc2ccccc2C=NOCC=Cc2ccccc2C(F)(F)F)n1 | 5 (0-5 (Death))
COc1cc(OC)nc(Oc2ccccc2C=NOC(C)C)n1 | 5 (0-5 (Death))
COC(=O)c1ccccc1Oc1nc(OC)cc(OC)n1 [A, reference compound] | 5 (0-5 (Death))

Task item: Could you tell me which Herbicidal effects Foxtail meadow is on file for COc1cc(OC)nc(Oc2ccccc2C=O)n1 [B, reference compound] ?
Reply: 4 (6-10 (Severe damages))

Task item: Could you tell me which Herbicidal effects Foxtail meadow is on file for COc1cc(OC)nc(Oc2ccccc2C=NO)n1 ?
Reply: 4 (6-10 (Severe damages))

Task item: Could you tell me which Herbicidal effects Foxtail meadow is on file for COc1cc(OC)nc(Oc2ccccc2C=NOCC=Cc2cccc(Cl)c2)n1 ?
Reply: 4 (6-10 (Severe damages))

Task item: Could you tell me which Herbicidal effects Foxtail meadow is on file for COc1cc(OC)nc(Oc2ccccc2C=NOCc2ccc(Cl)c(Cl)c2)n1 ?
Reply: 4 (6-10 (Severe damages))

----------
System: peanut
Assay: Upland soil application test (Test 2), crop injury
Format: in vivo
Settings: 30 g ai/a, soil spray before emergence, 30 days later
Reported Injury Peanut values are given for each entry in this list.

COc1cc(OC)nc(Oc2ccccc2C=NOC(C)c2ccccc2)n1 (stereo not shown) [compound 21] | 0 (91-100 (No damages))
CCc1ccc(C=CCON=Cc2ccccc2Oc2nc(OC)cc(OC)n2)cc1 [compound 37] | 0 (91-100 (No damages))
COc1cc(OC)nc(Oc2ccccc2C=NOCC=Cc2c(F)cccc2F)n1 [compound 33] | 0 (91-100 (No damages))
COc1cc(OC)nc(Oc2ccccc2C=NOCC=CCl)n1 [compound 11] | 0 (91-100 (No damages))
CC=CCON=Cc1ccccc1Oc1nc(OC)cc(OC)n1 [compound 8] | 0 (91-100 (No damages))

Task item: Could you tell me which Injury Peanut is on file for COc1cc(OC)nc(Oc2ccccc2C=NOCc2cccc3ccccc23)n1 [compound 22] ?
Reply: 0 (91-100 (No damages))

Task item: Could you tell me which Injury Peanut is on file for COc1cc(OC)nc(Oc2ccccc2C=NOCC=Cc2ccc(F)cc2)n1 [compound 29] ?
Reply: 0 (91-100 (No damages))
